B1: LINE1-full (parent)
chain: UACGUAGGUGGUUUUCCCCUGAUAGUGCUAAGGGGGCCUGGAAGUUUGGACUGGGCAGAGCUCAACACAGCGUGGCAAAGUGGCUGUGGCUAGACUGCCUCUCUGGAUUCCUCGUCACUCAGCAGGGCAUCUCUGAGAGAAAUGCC

# Variants of: B1
# Protocol text: self-cleavage, relative activity (ratio to wild type); higher = more cleavage; in vitro, sequencing; the parent is a self-cleaving ribozyme
Catalogue of variants with associated self-cleavage
API note: the answer field is a bare number with no unit suffix.

Study these solved cases before continuing.
Sequence variant	Observed result
U9G U130A	0.78
G27A G55A	0.21
U20C U45G	1.38
G4A G125A	0.86
U119A U143C	1.93
G114U A140G	0.91
G54U A136G	1
G53U U104C	2.38

Hello, please tell me recorded self-cleavage for this one: U15C U134A 1.04

Give recorded self-cleavage. A94G U109A 0.39

Check the records and state self-cleavage for A65C G105U 0.03

State its self-cleavage: C95A A129G 0.09

Report self-cleavage, nothing else, for this variant: A43U U96C 0.1

Provenance of the data: the RNAGym collection of RNA variant scans (doi:10.7554/elife.90254)
